- Tested on: cabbage moth (Plutella xylostella)
- assay-comment: cabbage moth mortality test on cabbage seedling
- Type: in vivo
- run-conditions: 120 h, 500 ppm spray on cabbage seedling, five second instar larvae, counted after 5 days, read-out: Morality (%)
# pest or weed control at 500 ppm per entry
property-label: pest or weed control at 500 ppm

> print(dat)
                                   compound  result
1  CCC(=NN=C(C)C(C)=NOCc1ccccc1)OCc1c(C)cccc1-n1nnn(C)c1=O [C-1]   ≥ 80%
2  CSC(=NCCc1ccccc1Cl)SCc1c(C)cccc1-n1nnn(C)c1=O [3-31]   ≥ 80%
3  CCC(=NN=C(C)c1ccc2scnc2c1)OCc1c(C)cccc1-n1nnn(C)c1=O [D-3]   ≥ 80%
4  CCC(=NN=C1CCOc2ccccc21)OCc1c(C2CC2)cccc1-n1nnn(C)c1=O [E-14]   ≥ 80%
5  CCC(=NN=C(C)C(C)=NOCc1ccc(OC)cc1)OCc1c(C)cccc1-n1nnn(C)c1=O [C-12]   ≥ 80%
6  CCC(=NN=C(C)C(C)=NOCc1cccc(C)c1)OCc1c(C)cccc1-n1nnn(C)c1=O [C-11]   ≥ 80%
7  CCC(=NN=C(C)c1cnccn1)OCc1c(C)cccc1-n1nnn(C)c1=O [1-4]   ≥ 80%
8  CCC(=NN=C1CCOc2ccc(C)cc21)OCc1c(C)cccc1-n1nnn(C)c1=O [E-26]   ≥ 80%
9  CSC(=NCc1ccccc1)SCc1c(C)cccc1-n1nnn(C)c1=O [3-9]   ≥ 80%

----------
- System: cabbage moth (Plutella xylostella)
- assay-comment: cabbage moth mortality test on cabbage seedling
- Format: in vivo
- run-conditions: 120 h, 500 ppm spray on cabbage seedling, five second instar larvae, counted after 5 days, read-out: Morality (%)
property-label: pest or weed control at 500 ppm

> print(dat)
                                   molecule                       tested.target  result
1  CCC(=NN=C(C)c1ccc2c(c1)OCO2)OCc1c(C)cccc1-n1nnn(C)c1=O [D-8]  cabbage moth (Plutella xylostella)   ≥ 80%
2  CC(=NN=C(OCc1c(C)cccc1-n1nnn(C)c1=O)N(C)C)c1ccc(F)cc1 [1-6]  cabbage moth (Plutella xylostella)   ≥ 80%
3  CCC(=NN=C1CCc2cccc(F)c21)OCc1c(C)cccc1-n1nnn(C)c1=O [E-5]  cabbage moth (Plutella xylostella)   ≥ 80%
4  CSC(=Nc1cccc(C(F)(F)F)c1)SCc1c(C)cccc1-n1nnn(C)c1=O [4-1]  cabbage moth (Plutella xylostella)   ≥ 80%
5  CCC(=NN=C1CCOc2cccc(F)c21)OCc1c(C)cccc1-n1nnn(C)c1=O [E-21]  cabbage moth (Plutella xylostella)   ≥ 80%
6  CCC(=NN=C(C)C(C)=NO)OCc1c(C)cccc1-n1nnn(C)c1=O [B-1]  cabbage moth (Plutella xylostella)   ≥ 80%
7  CSC(=NCCc1cccc(F)c1)SCc1c(C)cccc1-n1nnn(C)c1=O [3-26]  cabbage moth (Plutella xylostella)   ≥ 80%
8  CSC(=NC(C)(C)C)SCc1c(C)cccc1-n1nnn(C)c1=O [3-17]  cabbage moth (Plutella xylostella)   ≥ 80%
9  CCC(=NN=C(C)c1cnc2ccccc2c1)OCc1c(C)cccc1-n1nnn(C)c1=O [D-5]  cabbage moth (Plutella xylostella)   ≥ 80%
